# assay: in vivo
# conditionDetails: male, Sprague-Dawley, rat, plasma, iv, 5 mg/kg, Average plasma concentration, average of rats, IV 5 mg/kg, 240 min
quantityKind: concentration at 240 min

• COc1ccc(C[C@@H](C)NC[C@H](O)c2cc(O)cc(O)c2)cc1 [(R,R)-2] = 120 ng/mL

---

# assay: in vivo
# conditionDetails: male, Sprague-Dawley, rat, plasma, iv, 5 mg/kg, Average plasma concentration, average of rats, IV 5 mg/kg, 15 min
quantityKind: concentration at 15 min

* COc1ccc(C[C@@H](C)NC[C@H](O)c2cc(O)cc(O)c2)cc1 [(R,R)-2] | 580 ng/mL

---

# assay: in vivo
# conditionDetails: male, Sprague-Dawley, rat, plasma, iv, 5 mg/kg, Average plasma concentration, average of rats, IV 5 mg/kg, 300 min
quantityKind: concentration at 300 min (ng/mL)

* COc1ccc(C[C@@H](C)NC[C@H](O)c2cc(O)cc(O)c2)cc1 [(R,R)-2] | 70

---

# assay: in vivo
# conditionDetails: male, Sprague-Dawley, rat, plasma, iv, 5 mg/kg, Average plasma concentration, average of rats, IV 5 mg/kg, 60 min
quantityKind: concentration at 60 min (ng/mL)

• COc1ccc(C[C@@H](C)NC[C@H](O)c2cc(O)cc(O)c2)cc1 [(R,R)-2] = 260

---

# assay: in vivo
# conditionDetails: male, Sprague-Dawley, rat, plasma, iv, 5 mg/kg, Individual plasma concentration, individual rat, IV 5 mg/kg, 360 min
quantityKind: concentration at 360 min (ng/mL)

• COc1ccc(C[C@@H](C)NC[C@H](O)c2cc(O)cc(O)c2)cc1 [(R,R)-2] = 50

---

# assay: in vivo
# conditionDetails: male, Sprague-Dawley, rat, plasma, iv, 5 mg/kg, Average plasma concentration, average of rats, IV 5 mg/kg, 120 min
quantityKind: concentration at 120 min (ng/mL)

• COc1ccc(C[C@@H](C)NC[C@H](O)c2cc(O)cc(O)c2)cc1 [(R,R)-2] = 170

---

# assay: in vivo
# conditionDetails: male, Sprague-Dawley, rat, plasma, iv, 5 mg/kg
quantityKind: AUC

• COc1ccc(C[C@@H](C)NC[C@H](O)c2cc(O)cc(O)c2)cc1 [(R,R)-2] = 1.6 µg·h/mL

---

# assay: in vivo
# conditionDetails: male, Sprague-Dawley, rat, plasma, iv, 5 mg/kg, Individual plasma concentration, individual rat, IV 5 mg/kg, 300 min
quantityKind: concentration at 300 min (ng/mL)

* COc1ccc(C[C@@H](C)NC[C@H](O)c2cc(O)cc(O)c2)cc1 [(R,R)-2] | 60

---

# assay: in vivo
# conditionDetails: male, Sprague-Dawley, rat, plasma, iv, 5 mg/kg, Average plasma concentration, average of rats, IV 5 mg/kg, 360 min
quantityKind: concentration at 360 min (ng/mL)

- COc1ccc(C[C@@H](C)NC[C@H](O)c2cc(O)cc(O)c2)cc1 [(R,R)-2]: 60

---

# assay: in vivo
# conditionDetails: male, Sprague-Dawley, rat, plasma, iv, 5 mg/kg
quantityKind: clearance (mL/min)

• COc1ccc(C[C@@H](C)NC[C@H](O)c2cc(O)cc(O)c2)cc1 [(R,R)-2] = 15.4

---

# assay: in vivo
# conditionDetails: male, Sprague-Dawley, rat, plasma, iv, 5 mg/kg, Individual plasma concentration, individual rat, IV 5 mg/kg, 30 min
quantityKind: concentration at 30 min (ng/mL)

• COc1ccc(C[C@@H](C)NC[C@H](O)c2cc(O)cc(O)c2)cc1 [(R,R)-2] = 310

---

# assay: in vivo
# conditionDetails: male, Sprague-Dawley, rat, plasma, iv, 5 mg/kg, Individual plasma concentration, individual rat, IV 5 mg/kg, 60 min
quantityKind: concentration at 60 min (ng/mL)

• COc1ccc(C[C@@H](C)NC[C@H](O)c2cc(O)cc(O)c2)cc1 [(R,R)-2] = 230

---

# assay: in vivo
# conditionDetails: male, Sprague-Dawley, rat, plasma, iv, 5 mg/kg, Individual plasma concentration, individual rat, IV 5 mg/kg, 120 min
quantityKind: concentration at 120 min (ng/mL)

* COc1ccc(C[C@@H](C)NC[C@H](O)c2cc(O)cc(O)c2)cc1 [(R,R)-2] | 140
